Assay: "Mother" concentration: highest concentration at which complete solubilisation could be obtained
Format: physicochemical
Conditions: propylene glycol 30% in water, aqueous with cosolvent or surfactant or cyclodextrin; solvent prop glycol 30% in water; read-out: "mother" conc. (highest concentration at which complete solubilisation could be obtained)
readout-label: solubility (mg/mL)
Report the figure in mg/mL without appending any unit label.

For the compound `CCCCCCCCCCCC(=O)O` , what solubility is on record?
10.1
